- System: PC-3 prostate
- assay.explanation: NCI tumour cell line growth inhibition, 48 h
Below, each of the molecules is paired with its reported TGI value.

Worked examples, 3 molecules total:
COc1ccc(C2=NOC(N)(c3ccc(OC)cc3)C2)cc1 (stereo not given) ... > 100 µM
CC(C)(C)OC(=O)NCCCCC(N)NC(=O)c1ccccc1 (stereo not given) ... > 100 µM
CCOC(=O)c1cc2c(cc1Cl)SC(=Nc1ccccc1)N(S(=O)(=O)c1ccc(Br)s1)S2(=O)=O ... 32.1 µM

The reported value for COc1cccc(C2c3cc4c(cc3OC3COC(=O)C32)OCO4)c1OC (stereo not given) in terms of TGI is > 100 µM

The reported value for COc1cc(C(=O)c2cc(C)c3[nH]c4ccc(O)cc4c3c2C)cc(OC)c1OC in terms of TGI is > 100 µM

The reported value for NC(N)=NCCC(O)(P(=O)(O)O)P(=O)(O)O in terms of TGI is > 100 µM

---

Below, each of the compounds is paired with its reported TGI value.
- Test system: RPMI-8226 leukemia
- assay.explanation: NCI tumour cell line growth inhibition, 48 h
Just the number in µM, nothing appended.

# CN(C)CCc1c2c(nc3ccccc13)C(=O)c1cccnc1C2=O with RPMI-8226 leukemia: TGI is 1.82

# CC1=C(C(=O)Nc2ccc(Cl)c(Cl)c2)C(c2ccc([N+](=O)[O-])cc2)C(C(=O)Nc2ccc(Cl)c(Cl)c2)=C(C)N1 with RPMI-8226 leukemia: TGI is 8.63

---

- Tested on: UACC-257 melanoma
- assay.explanation: NCI tumour cell line growth inhibition, 48 h
observable: GI50

CN1CCN(CCCCCN=c2cc3c(=O)n(CCCCCN4CCN(C)CC4)c(=O)c4c(NCCCCCN5CCN(C)CC5)cc5c(O)n(CCCCCN6CCN(C)CC6)c(=O)c2c5c4-3)CC1 ... 2.6 µM
Fc1ccc(/C=N/n2c(-c3ccc(F)c(Cl)c3)n[nH]c2=S)cc1 ... 30.6 µM

The reported value for COc1ccc(/C=C(\C)[N+](=O)[O-])cc1OC in terms of GI50 is 1.88 µM

The reported value for C=C1[C@@H](O)O[C@H]2[C@H]1C[C@H](OC(C)=O)[C@]13C(=O)O[C@H]4C[C@](C)(O)[C@H]([C@H]41)C31C=C(C)[C@]2(O)O1 in terms of GI50 is 25.6 µM

The reported value for COc1cc2c(cc1F)C(c1ccccc1Cl)=Nc1c(n[nH]c1C)N2 in terms of GI50 is 11.1 µM

The reported value for c1cc(N2CCN(c3ccc(C4=NCCCN4)cc3)CC2)ccc1C1=NCCCN1 in terms of GI50 is 99 µM

The reported value for C[CH2][Hg][S]c1ccccc1C(=O)O in terms of GI50 is 1.18 µM

The reported value for N#CCCNc1nonc1-c1nc2ccccc2n1CC(=O)c1ccc(NC(=O)[C@@H](N)CCCCN)cc1 in terms of GI50 is > 100 µM

The reported value for COc1cc(C(=O)c2cc(C)c3[nH]c4ccc(O)cc4c3c2C)cc(OC)c1OC in terms of GI50 is 6.42 µM

The reported value for Cc1ccncc1C(N)=O in terms of GI50 is > 100 µM

The reported value for O=C(Nc1ccccc1OC(=O)c1ccccc1)c1ccccc1 in terms of GI50 is 35.1 µM

The reported value for CCc1c(C)nc2sc3c(N)ncnc3c2c1C in terms of GI50 is > 25 µM

---

- Test system: NCI-H226 lung
- assay.explanation: NCI tumour cell line growth inhibition, 48 h; in the data active means GI50 below about 0.43 µM; inactive means the rest
A correct response names exactly one class from label 1 (active), label 0 (inactive)

COc1cc2c(cc1F)C(c1ccccc1Cl)=Nc1c(n[nH]c1C)N2 ... label 0
C[C@@H]1Cc2cc(O)ccc2[C@H]2CC[C@]3(C)/C(=C/COCCN(C)C)CC[C@H]3[C@H]12 (tested in a mixture with another compound) ... label 0
O=C(NNS(=O)(=O)c1ccc(Cl)cc1Cl)c1cccnc1Nc1ccc(Cl)cc1 ... label 0
CC1c2ccccc2CCN1c1ccc(CO)c(Cl)c1 (stereo not given) ... label 1
CCN1C(=O)N(CC)C2C1NN=c1s/c(=C\c3ccc(F)cc3)c(=O)n12 (stereo not given) ... label 0
COc1cc(-c2nn(-c3cccc(NC(=O)CCN4CCN(Cc5ccccc5)CC4)c3)cc2-c2ccncc2)ccc1Cl ... label 0
COc1cc(C(=O)c2cc(C)c3[nH]c4ccc(O)cc4c3c2C)cc(OC)c1OC ... label 1
CN1CCN(CCCCCN=c2cc3c(=O)n(CCCCCN4CCN(C)CC4)c(=O)c4c(NCCCCCN5CCN(C)CC5)cc5c(O)n(CCCCCN6CCN(C)CC6)c(=O)c2c5c4-3)CC1 ... label 0
C[n+]1c2ccccc2nc2c(N)cc(N)cc21 ... label 0

Problem: Hi, do you know how C=CCc1cc(Nc2c3ccc(Cl)cc3nc3ccc(OC)cc23)cc(CN(CC)CC)c1O came out in this test?
Solution: label 0

---

Below, each of the molecules is paired with its reported log10(TGI) value.
- System: OVCAR-3 ovarian
- assay.explanation: NCI tumour cell line growth inhibition, 48 h
In plain terms, each number is the log10 of measured TGI in µM.

Worked examples, 4 molecules total:
COc1ccc2c(-c3ccnc(Nc4cccc(OC(F)(F)F)c4)n3)cnn2n1 ... 0.23
Cc1ccc(C2C3Cc4ccccc4C3=NN2c2ccc(S(=O)(=O)/N=c3\scc(-c4ccccc4)n3-c3ccccc3)cc2)cc1 (stereo not given) ... 1.64
Oc1c(-c2cc(C(F)(F)F)[nH]n2)cc(Cl)c(OCc2ccc(Cl)cc2)c1-c1ccc(Cl)c(C(F)(F)F)c1 ... 0.74
O=C(Nc1ccccc1OC(=O)c1ccccc1)c1ccccc1 ... 1.35

# Cc1cc2c(cc1C)[n+](=O)c(C(=O)c1ccccc1)c(C(F)(F)F)n2[O-] with OVCAR-3 ovarian: log10(TGI) is 0.58

---

Below, each of the molecules is paired with its reported TGI value.
- Test system: SNB-19 CNS
- assay.explanation: NCI tumour cell line growth inhibition, 48 h
Just the number in µM, nothing appended.

CN1CCN(CCCCCN=c2cc3c(=O)n(CCCCCN4CCN(C)CC4)c(=O)c4c(NCCCCCN5CCN(C)CC5)cc5c(O)n(CCCCCN6CCN(C)CC6)c(=O)c2c5c4-3)CC1 ... 7.16

The reported value for Oc1c(-c2cc(C(F)(F)F)[nH]n2)cc(Cl)c(OCc2ccc(Cl)cc2)c1-c1ccc(Cl)c(C(F)(F)F)c1 in terms of TGI is 6.62

---

- Tested on: COLO 205 colon
- assay.explanation: NCI tumour cell line growth inhibition, 48 h
observable: TGI (µM)
Just the number in µM, nothing appended.

Worked examples, 3 compounds total:
CCCc1[nH]c2ccccc2c1-c1c(CCC)[nH]c2ccccc12 ... 37.1
COc1cc2c(cc1F)C(c1ccccc1Cl)=Nc1c(n[nH]c1C)N2 ... 3.79
CN(CCCNC(=O)c1cc(-c2ccccc2)nc2ccccc12)CCCNC(=O)c1cc(-c2ccccc2)nc2ccccc12 ... 3.14

The reported value for N[C@H](COCc1ccccc1)c1ccccc1 in terms of TGI is 29.2

The reported value for O=C1c2c(Br)sc(Br)c2[C@@H](NC(=O)C(F)(F)F)C1Br (stereo not given in full) in terms of TGI is 4.02

The reported value for O=C(NCCNCCO)c1cccc2ccc(-c3ccccc3)nc12 in terms of TGI is 13.6

The reported value for CC1CC(C#N)=C2NCCN2C1=O (stereo not given) in terms of TGI is 37.4

The reported value for CC(C)/C(Cl)=N/OC(=O)Nc1ccc(Cl)c(Cl)c1 in terms of TGI is 3.39

---

- Tested on: OVCAR-8 ovarian
- assay.explanation: NCI tumour cell line growth inhibition, 48 h
observable: TGI

Worked examples, 5 molecules total:
N#CCCC1(CCC#N)CCCCCCCCC(CCC#N)(CCC#N)C(O)C1O (stereo not given) ... > 100 µM
CC(CO)(Nc1ccc([N+](=O)[O-])cc1[N+](=O)[O-])C(=O)O (stereo not given) ... > 100 µM
COc1cc(Nc2nc3cc(C(F)(F)F)ccc3n3cccc23)cc(OC)c1OC ... > 100 µM
Clc1ccc(C2ON=C(c3ccccc3)N2C23CC4CC(CC(C4)C2)C3)cc1 (stereo not given) ... > 10 µM
COc1ccc(/C=C(\C)[N+](=O)[O-])cc1OC ... 6.29 µM

The reported value for CC(C)/C(Cl)=N/OC(=O)Nc1ccc(Cl)c(Cl)c1 in terms of TGI is 32.9 µM

The reported value for CCOC(=O)/C(I)=C/c1cc(OC)c(OC)c(OC)c1 in terms of TGI is 38.8 µM

The reported value for CC(=O)O[C@H]1CC[C@@]2(C)C(=CC[C@@H]3[C@@H]2CC[C@]2(C)c4nc(Cl)ccc4C[C@@H]32)C1 in terms of TGI is > 100 µM

The reported value for O=C(Nc1ccccc1OC(=O)c1ccccc1)c1ccccc1 in terms of TGI is > 100 µM

The reported value for CCN(CC)c1nnc(CCCCCCCCc2nnc(N(CC)CC)o2)o1 in terms of TGI is > 100 µM
